# Experimental target: human FSH receptor (Homo sapiens)
# Construct: expressed in transfected cells; host or cells: CHO cells (hFSHR clone 16)
# Sequence (P23945 18-695): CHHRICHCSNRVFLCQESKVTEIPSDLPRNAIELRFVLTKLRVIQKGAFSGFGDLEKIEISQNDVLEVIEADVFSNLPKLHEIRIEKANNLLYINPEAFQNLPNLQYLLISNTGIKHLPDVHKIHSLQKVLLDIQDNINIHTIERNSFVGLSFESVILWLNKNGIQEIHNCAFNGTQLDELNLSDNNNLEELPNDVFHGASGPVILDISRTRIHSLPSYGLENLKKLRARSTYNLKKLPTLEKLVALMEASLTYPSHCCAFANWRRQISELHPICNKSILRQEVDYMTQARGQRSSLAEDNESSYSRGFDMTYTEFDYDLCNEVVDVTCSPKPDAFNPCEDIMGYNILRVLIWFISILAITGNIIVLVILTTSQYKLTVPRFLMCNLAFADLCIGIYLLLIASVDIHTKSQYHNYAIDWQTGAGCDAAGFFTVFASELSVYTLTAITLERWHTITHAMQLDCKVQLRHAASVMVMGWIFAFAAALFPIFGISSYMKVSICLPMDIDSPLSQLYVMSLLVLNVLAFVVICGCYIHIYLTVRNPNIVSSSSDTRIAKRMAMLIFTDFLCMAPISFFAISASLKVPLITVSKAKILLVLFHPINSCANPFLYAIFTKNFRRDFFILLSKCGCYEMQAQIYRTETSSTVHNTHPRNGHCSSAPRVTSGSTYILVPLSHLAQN
# Method: HTRF assay for measuring cAMP in cells (FSH antagonism)
# Type: cell-based
# Measurement conditions: FSH antagonistic effect; hFSHR clone 16 cells (CHO cells stably transfected with the human FSH receptor); in the presence of 1 e-9 mol/I hFSH; 37°C for 2h
# Protocol: HTRF assay for measuring cAMP in cells The method is based on a competitive immunoassay between native cAMP, which has been produced by the cells, and cAMP which is labelled with cAMPD2 conjugate. The tracer binding was visualized by a monoclonal antibody, anti-cAMP labelled with cryptate [HTRF = homogeneous time-resolved fluorescence]. The specific signal is inversely proportional to the cAMP concentration of the samples employed. The 665nm/ 620nm fluorescence ratio was evaluated. […]
Test readout: IC50 (µM)

> print(dat)
                                   compound  test.readout  readout.value
1  CNC(=O)c1ccc(C#Cc2ccc(OC)c(S(=O)(=O)N[C@H](Cc3c[nH]c4ccccc34)C(C)(C)O)c2)cc1 [Example 22]          IC50            3.5
2  CNC(=O)c1ccc(-c2ccc(OC)c(S(=O)(=O)N[C@@H](CO)Cc3c[nH]c4ccccc34)c2)cc1Cl [Example 3]          IC50              4
3  COc1ccc(-c2cc(OC)c(OC)c(OC)c2)cc1S(=O)(=O)N[C@@H](CO)Cc1c[nH]c2ccccc12 [Example 1]          IC50            3.5
4  CNC(=O)c1ccc(-c2ccc(OC(C)C)c(S(=O)(=O)N[C@@H](CO)Cc3c[nH]c4ccccc34)c2)cc1Cl [Example 9]          IC50           0.18
5  CNC(=O)c1ccc(C#Cc2ccc(OC)c(S(=O)(=O)N[C@@H](CO)Cc3c[nH]c4ccccc34)c2)cc1 [Example 18]          IC50            2.5
